# Test Description: qHTS for Inducers of the Endoplasmic Reticulum Stress Response (ERSR) in Human Glioma: qHTS; also: % of control where 0% means no effect; nearly all actives have a fitted effect of over 35% in size
# Condition Details: U87-MG GRP78 promoter luciferase reporter, 16 h; hits give high values
Hit rate of the full screen: of about 420,000 compounds, about 75 (0.02%) were called active. The sample holds actives, similar compounds and a random draw of the others, so the mix is not that of the screen.
This listing pairs compounds with measured activation.
Report the value in % with no unit label.

CC1O[C@@H](Oc2c(-c3ccc(O)c(O)c3)oc3cc(O)cc(O)c3c2=O)C(O)C(O)C1O (some centres undefined) :: -2.63
O=C1OCCC=C1[C@@H](O)CCc1ccccc1 :: 3.05
C[C@H]1CC[C@H](C(=O)O)N[C@@H]1c1ccc(C#Cc2ccccc2)cc1 :: -4.8

Return activation for the following compound: CCCNC(=O)OC[C@@H]1O[C@H](c2ccccc2)C=C[C@@H]1Oc1ccc(OC)cc1
-2.78

Return activation for the following compound: Cn1nccc1C(=O)NCC1CCC2(CCN(Cc3c(O)ccc4ccccc34)CC2)O1 (centres undefined)
-1.48

Return activation for the following compound: C=C1/C(=C\C=C2\CCCC3(C)C2CCC3C(C)/C=C/C(O)C2CC2)CC(O)CC1O (centres undefined)
-9.49

Return activation for the following compound: O=C(C[n+]1ccncc1)c1ccc2c(c1)CCCC2
-0.663

Return activation for the following compound: O=c1cc(-c2ccc(O)cc2)oc2c([C@@H]3O[C@H](CO)[C@@H](O)[C@H](O)[C@H]3O)c(O)cc(O)c12
-0.663

Return activation for the following compound: CC1=C(/C=C/C(C)=C/C=C/C(C)=C/C=C/C=C(C)/C=C/C=C(C)/C=C/C(=O)[C@]2(C)C[C@@H](O)CC2(C)C)C(C)(C)C[C@H](O)C1
-0.817

###

This listing pairs molecules with measured activation.
# Test Description: qHTS for Inducers of the Endoplasmic Reticulum Stress Response (ERSR) in Human Glioma: qHTS; also: % of control where 0% means no effect; nearly all actives have a fitted effect of over 35% in size
# Condition Details: U87-MG GRP78 promoter luciferase reporter, 16 h; hits give high values
Among all 420,000 compounds or so, about 75 (0.02%) were called active. What follows is part of a selection rich in actives, with near analogues and random picks from the rest.
Report the value in % with no unit label.

CN(C)C(=O)[C@@H]1C[C@@H](Sc2nc3ccccc3[nH]2)CN1Cc1ccc(Cl)cc1 :: -3.23
CCCCc1nn(-c2ccccc2C(F)(F)F)c(=O)n1Cc1ccc(-c2ccccc2S(=O)(=O)NC(=O)c2sccc2C)cc1 :: -2.91
O=C(NCC1(N2CCCCC2)CCCCC1)c1cccc(S(=O)(=O)Nc2ccccc2Cl)c1 :: -4.77
CC(C)[C@@H](OCc1ccccc1)[C@H](C)/C=N\OC[C@@H](C)[C@H](OCc1ccccc1)C(C)C :: -2.4
O=c1cc(-c2ccc(O)cc2)oc2c(-c3cc(-c4cc(=O)c5c(O)cc(O)cc5o4)ccc3O)c(O)ccc12 :: -1.39
C=COC(=O)N1CCN(/[N+]([O-])=N/Oc2ccc([N+](=O)[O-])cc2[N+](=O)[O-])CC1 :: -11
O=c1c(CN2CCOc3ccc(CN4CCC(Oc5cccnc5)CC4)cc3C2)coc2ccccc12 :: -1.61
CCOC(=O)[C@]1(C(/C=C/c2ccco2)NC(=O)OC)CCCC1=O (stereo partly specified) :: -4.35
O=C(NCC1(N2CCCCC2)CCCCC1)c1ccc(NS(=O)(=O)c2ccc(F)cc2)cc1 :: -3.09
C[C@@H]1O[C@@H](OC[C@H]2O[C@@H](Oc3c(-c4cccc(O)c4O)oc4cc(O)cc(O)c4c3=O)[C@H](O)[C@@H](O)[C@@H]2O)[C@H](O)[C@H](O)[C@H]1O :: -4.32

Return activation for the following molecule: COC(=O)[C@@H]1CC[C@H](C)[C@@H](c2ccc(C)cc2)N1C(=O)c1ccc(/C=N\OC[C@@H](O)COCc2ccco2)cc1
3.64

Return activation for the following molecule: Cc1c(S(=O)(=O)O)oc2c1C(=O)C(=O)c1c-2ccc2c1CCCC2(C)C
-3.94

Return activation for the following molecule: C[C@H]1C[C@H]2[C@@H]3CCC4=CC(=O)C=C[C@]4(C)[C@@H]3C(=O)C[C@]2(C)[C@@]1(O)C(=O)CO
-3.39

Return activation for the following molecule: CCOC(=O)N1CCN(Cc2ccc3c(c2)CN(C(=O)c2cccc(-n4cccn4)c2)CCO3)CC1
-2.17

Return activation for the following molecule: CCCS(=O)(=O)NCc1c(C)ncc2c1CCN(C(=O)c1ccc(F)c(F)c1)C2
-4.76

Return activation for the following molecule: CO[C@H]1C[C@@H](O[C@@H]2[C@@H](C)O[C@@H](O[C@@H]3/C(C)=C/CC4C[C@@H](C[C@]5(C=C[C@@H](C)[C@H](C6CCCCC6)O5)O4)OC(=O)[C@@H]4C=C(C)[C@@H](O)[C@H]5OC/C(=C\C=C\[C@@H]3C)[C@]54O)C[C@H]2OC)O[C@@H](C)[C@@H]1O
-9.58

Return activation for the following molecule: CC(=O)Nc1cc(C(=O)N2CCc3c(Cl)cccc3C2)cc2ncn(CCc3ccccn3)c12
-1.89

Return activation for the following molecule: CCC1CN(CCNC(=O)c2cccc(C)n2)Cc2cc(OC)ccc2O1 (stereo unspecified)
-0.701

Return activation for the following molecule: CC1(C)[C@H](O[C@H]2O[C@H](C(=O)O)[C@@H](O)[C@H](O)[C@H]2O[C@@H]2O[C@H](C(=O)O)[C@@H](O)[C@H](O)[C@H]2O)CC[C@@]2(C)[C@H]1CC[C@]1(C)[C@H]2C(=O)C=C2[C@H]3C[C@@](C)(C(=O)O)CC[C@]3(C)CC[C@]21C
-2.51
